Assay: Pharmacokinetics in rats after intravenous administration
Assay type: in vivo
Settings: rat, plasma, 5 mg/kg, AUC0-∞ (mean value), intravenous, mean
endpointName: AUC(0-inf) (ng·h/mL)

>>> recordedmeasurement("C[C@@H](CNCc1ccccc1)N1C[C@H](CCCNC(=N)N)N(CCc2cccc(F)c2)C1=S [TPI 1361-17]")
2440

----------
Biological target: Dopamine D1 (Homo sapiens)
Sequence (P21728 whole entry): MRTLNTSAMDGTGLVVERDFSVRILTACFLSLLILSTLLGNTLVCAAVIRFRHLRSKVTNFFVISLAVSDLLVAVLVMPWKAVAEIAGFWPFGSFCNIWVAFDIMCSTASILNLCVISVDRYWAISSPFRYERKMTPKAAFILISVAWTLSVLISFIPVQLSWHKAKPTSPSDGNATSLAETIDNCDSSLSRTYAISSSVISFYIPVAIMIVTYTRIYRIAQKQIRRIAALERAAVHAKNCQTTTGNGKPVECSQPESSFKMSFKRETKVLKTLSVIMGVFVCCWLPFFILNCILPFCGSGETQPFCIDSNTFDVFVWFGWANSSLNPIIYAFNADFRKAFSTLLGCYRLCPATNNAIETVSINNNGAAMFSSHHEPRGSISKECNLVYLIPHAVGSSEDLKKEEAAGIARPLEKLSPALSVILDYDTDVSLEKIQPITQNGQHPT
Test: Radioligand displacement
Assay type: binding
pIC50: −log10 of the molar value.
endpointName: pIC50

>>> recordedmeasurement("C[C@@H](CNCc1ccccc1)N1C[C@H](CCCNC(=N)N)N(CCc2cccc(F)c2)C1=S")
"< 6.00"

Each recorded value in this set is attributed to paper PMC2633472.
